B1: PTPRD (parent)
chain: FICQATGDPRPKIVWNKKGKKVSN

variants of: B1; assay: protein stability index of a GFP-peptide fusion (GPS, HEK-293T) (PSI 1-6); higher = more stable; conditions: c terminus: a fixed tail appended;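 note: lentivirally expressed fusions sorted by FACS into six bins by GFP to DsRed ratio, PSI derived from sequencing read proportions per bin multiplied by bin number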
Tick T if protein stability index is 2 or greater. Tick F if protein stability index is less than 2.

Sample answers from the record:
Task: Kindly determine if protein stability index recorded for V22C is above or exactly 2.
Result: T

Task: Kindly determine if protein stability index recorded for T6C is above or exactly 2.
Result: T

Task: Reported protein stability index at or above 2? V14A
Result: T

Task: Form field: protein stability index at least 2? Entry: A5H
Result: T

Task: Entry K12R : is its protein stability index no less than 2?
Result: F

Task: Could you please find out whether W15G has protein stability index that meets 2 or exceeds it?
Result: T

Task: protein stability index >= 2 for A5S ?
Result: F

Task: Determine whether this variant has protein stability index no lower than 2: S23M
Result: T

***
Task: Reported protein stability index at or above 2? P9L
Result: T

Task: Hi team, for K20H , is the recorded protein stability index at or above 2?
Result: T

Task: Confirm if protein stability index reported for the variant K17T is 2 or above.
Result: F

Task: Test whether the variant W15S records protein stability index of 2 or higher.
Result: T

Task: Item G7L with protein stability index of 2 or above?
Result: T

Task: Hi, just wondering whether V14I shows protein stability index of 2 or higher.
Result: T

Task: Can Q4Y be said to have protein stability index at or above 2?
Result: F

Task: Evaluate S23N : protein stability index at minimum 2?
Result: T

Task: Please check the record F1T and state if its protein stability index is at or above 2.
Result: T

Task: Textbook exercise: given the entry K21A , state whether its protein stability index is greater than or equal to 2.
Result: T

Task: Assess whether reported protein stability index for N24H sits at 2 or higher.
Result: T

Reference source for all entries: the supplement of paper PMC10567573
